Parameter pKd: see the listing below.
TESTED TARGET: MAST1, Q9Y2H9
Sequence (Q9Y2H9 962-1065): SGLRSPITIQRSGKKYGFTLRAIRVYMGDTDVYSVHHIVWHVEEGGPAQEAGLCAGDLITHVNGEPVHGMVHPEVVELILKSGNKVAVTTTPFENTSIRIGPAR
MEASUREMENT NOTES: holdup assay
Parameters: key: below the threshold = too weak to quantify, mostly under pKd 3.1 to 4
APPLIED CONDITIONS: plain residues with an end cap or a label only (N-terminal biotin on a linker: ado-ado)
// print number alone

[
  {
    "BINDER": "RSSGGDDFWF [KCNV1, Q6PIU1]",
    "pKd": 4.01
  },
  {
    "BINDER": "KPGKGSETVV [FZD4, Q9ULV1]",
    "pKd": 4.4
  },
  {
    "BINDER": "DGVNEKVSCV [HTR2A, P28223]",
    "pKd": 3.65
  },
  {
    "BINDER": "VLYPREGTEV [FOXI1, Q12951]",
    "pKd": 4.74
  },
  {
    "BINDER": "ELSATVTTDC [TRIP6, Q15654]",
    "pKd": 3.63
  }
]

Query: Data request, read-out pKd, for LKDDELKTKL [SLCO1A2, P46721]
Result: 4.64

Query: What value of pKd has been reported for the following binder? DDASLPVSDV [PLEKHA1, Q9HB21]
Result: 3.96

Query: # pKd lookup, item PSVGSKKTVL [REELD1, A0A1B0GV85]
Result: 4.2
